Recorded values, source patent US8546440B2.

System: Aβ42
Test: Screening for γ-secretase-modulating activity, Method 1: Aβ42 sandwich ELISA in supernatant of SKNBE2 cells carrying APP 695 wild type (Tables 12a, 12b)
Assay type: cell-based
Conditions: Homo sapiens; Table 12b; Method 1, SKNBE2 cells carrying APP 695 wild type, cell supernatant ELISA; averaged IC50 values, percentage of control vs log concentration
Under this convention, Fulfilled denotes IC50 strictly below 0.1 µM and Not fulfilled denotes IC50 at or above 0.1 µM.

smilesStr | measuredTarget | labelClass
Cc1ncn(-c2ccc(Nc3cccn4cc(-c5ccc(F)cc5C)nc34)cc2)n1 | Aβ42 | Not fulfilled
COc1cc(Nc2cccn3cc(COc4ccc(F)cc4)nc23)ccc1-n1cnc(C)c1 | Aβ42 | Fulfilled
COc1cc(Nc2cccn3cc(-c4cccc(F)c4)nc23)ccc1-n1cnc(C)c1 | Aβ42 | Fulfilled
COc1cc(Nc2cccn3c(I)c(-c4ccc(F)cc4)nc23)ccc1-n1cnc(C)c1 | Aβ42 | Fulfilled
COc1cc(Nc2cccn3cc(-c4ccc(F)cc4C)nc23)ccc1-n1cnc(C)c1 | Aβ42 | Fulfilled
COc1cc(Nc2cccn3cc(-c4cccnc4)nc23)ccc1-n1cnc(C)c1 | Aβ42 | Not fulfilled
COc1cc(Nc2cccn3c(C)c(-c4ccc(CC(C)C)cc4)nc23)ccc1-n1cnc(C)c1 | Aβ42 | Fulfilled
COc1cc(Nc2cccn3c(C)c(-c4ccccc4C(F)(F)F)nc23)ccc1-n1cnc(C)c1 | Aβ42 | Fulfilled
COc1cc(Nc2cccn3cc(-c4ccc(F)cc4)nc23)ccc1-n1ncnc1C | Aβ42 | Not fulfilled
COc1cc(Nc2cccn3cc(CN4CCOCC4)nc23)ccc1-n1cnc(C)c1 | Aβ42 | Not fulfilled
COc1cccc(-c2cn3cccc(Nc4ccc(-n5cnc(C)c5)c(OC)c4)c3n2)c1 | Aβ42 | Fulfilled
COCCc1c(-c2ccc(F)cc2)nc2c(Nc3ccc(-n4cnc(C)n4)c(OC)c3)cccn12 | Aβ42 | Fulfilled
COc1cc(Nc2cccn3c(C)c(-c4ccccc4F)nc23)ccc1-n1cnc(C)c1 | Aβ42 | Fulfilled
COc1cc(Nc2cccn3cc(-c4cccc(C(F)(F)F)c4)nc23)ccc1-n1cnc(C)c1 | Aβ42 | Fulfilled
COc1cc(Nc2cccn3cc(-c4ccccc4)nc23)ccc1-n1cnc(C)c1 | Aβ42 | Fulfilled
COc1cc(Nc2cccn3c(C)c(-c4ccccc4Cl)nc23)ccc1-n1cnc(C)c1 | Aβ42 | Fulfilled
Cc1ncn(-c2ccc(Nc3cccn4cc(-c5cc(C(F)(F)F)ccc5C)nc34)cc2F)n1 | Aβ42 | Not fulfilled
CCc1cn2cc(C(F)(F)F)cc(Nc3ccc(-n4cnc(C)n4)c(OC)c3)c2n1 | Aβ42 | Not fulfilled
COc1cc(Nc2cccn3cc(-c4ccc(F)cc4F)nc23)ccc1-n1cnc(C)c1 | Aβ42 | Not fulfilled
COc1cc(Nc2cccn3c(C)c(-c4c(F)cccc4F)nc23)ccc1-n1cnc(C)c1 | Aβ42 | Fulfilled
COc1cc(Nc2cccn3cc(-c4ccccc4C(F)(F)F)nc23)ccc1-n1cnc(C)c1 | Aβ42 | Fulfilled
COc1cccc(-c2nc3c(Nc4ccc(-n5ccnc5C)cc4)cccn3c2C)c1 | Aβ42 | Not fulfilled
Cc1ncn(-c2ccc(Nc3cccn4c(C)c(C)nc34)cc2)n1 | Aβ42 | Not fulfilled
Cc1cn(-c2ccc(Nc3cccn4cc(C5CC5)nc34)cc2F)cn1 | Aβ42 | Not fulfilled
COc1ccc(-c2cn3cccc(Nc4ccc(-n5cnc(C)c5)c(OC)c4)c3n2)cc1 | Aβ42 | Fulfilled
COc1cc(Nc2cccn3cc(-c4ccc(F)cc4)nc23)ccc1-n1ccnc1C | Aβ42 | Not fulfilled
COc1cc(Nc2nccn3cc(-c4ccc(F)cc4C)nc23)ccc1-n1cnc(C)n1 | Aβ42 | Not fulfilled
Cc1cc(F)ccc1-c1cn2cccc(Nc3ccc(-n4ncnc4C)c(F)c3)c2n1 | Aβ42 | Not fulfilled
COc1cc(Nc2cccn3c(C(=O)c4ccc(F)cc4)cnc23)ccc1-n1cnc(C)c1 | Aβ42 | Not fulfilled
Cc1ccc(C(F)(F)F)cc1-c1cn2cccc(Nc3ccc(-n4ncnc4C)c(F)c3)c2n1 | Aβ42 | Not fulfilled
COc1cc(Nc2cccn3cc(COC(C)C)nc23)ccc1-n1cnc(C)c1 | Aβ42 | Fulfilled
COc1ccc(C)c(-c2cn3cccc(Nc4ccc(-n5cnc(C)n5)c(F)c4)c3n2)c1 | Aβ42 | Not fulfilled
COc1cc(Nc2cccn3c(-c4ccccc4)c(-c4ccccc4)nc23)ccc1-n1cnc(C)c1 | Aβ42 | Fulfilled
